- Substrate: F protein of hMPV virus strain A2 (human metapneumovirus, strain A2)
- assaySummary: cell-based or functional assay
outcomeMeasure: EC50 (nM), plaque reduction, hMPV A2, Vero cells

binder | unitInfo | resultNumber
WDEFDKKIEEVNKKIEESLKKIEESDKKLEEVNEAAAKK (modifications not checked) [Compound 41] | nM | 11.7
SDELVNKKIEFDKKINQSLKKIEESDKKKLEAAAKK (modifications not checked) [Compound 51] | nM | 18.8
WDEFDKKIEEVNKKIEESLKKIEESDKKLEAAAKK (modifications not checked) [Compound 13] | nM | 11.7
YDELVFDASQVNEKINQSLEKIRKSDELLHNVEAAAKK (modifications not checked) [Compound 30] | nM | 94.8
WDEFDASIEEVNRRIEESLRRIEESDRRLEEVEAAAKK (modifications not checked) [Compound 43] | nM | 16.8
DEFDKKIEEVNKKIEESLKKIEESDKKLEAAAKK (modifications not checked) [Compound 17] | nM | 8.78
DEFDKKKIEEVNKKIEESLKKIEESDKKLEEVEAAAKK (modifications not checked) [Compound 22] | nM | 88.4
WDEFDASISQVNEKINQSLEEIRKSDELLHNVNAGLGSGSGK (modifications not checked) [Compound 27] | nM | 78.3
WDEFDKKIEEVNKKIEESLKKIEESDKKLHNVEAAAKK (modifications not checked) [Compound 44] | nM | 14.6
YDELVFDASQVNEKINQSLEKIRKSDELLHNVGSGSGK (modifications not checked) [Compound 25] | nM | 86.4
WDEFDASISQVNEKINQSLEEIRKSDELLHNEAAAKK (modifications not checked) [Compound 45] | nM | 200
DEFDKKIEEVNKKIEESLKKIEESDKKLEEVNEAAAKK (modifications not checked) [Compound 14] | nM | 18.9
FDEEISQVNEKINQSLAFIRKSDELLHNVNAGKSTTEAAAKK (modifications not checked) [Compound 26] | nM | 103
WDEFDKKIEEVNKKIEESLKKIEESDKKLEEVNAEAAAKK (modifications not checked) [Compound 40] | nM | 13.8

Cited source: patent US20260250325A1
